target_or_test_system: T1, human IGF2^1-67 (mature insulin-like growth factor 2) (human, UniProt P01344 25-91, biotinylated (site not stated) where immobilised on the chip (Tables 1-4))
T1 construct: mature; also called mature IGF2; biotinylated IGF2
T1 sequence (P01344 25-91): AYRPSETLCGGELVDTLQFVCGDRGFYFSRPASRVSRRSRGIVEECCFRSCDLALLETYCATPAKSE
assay_text: SPR kinetic, biotin-IGF2 on chip, pH 7.4

{"binder": "domain 11^AB5 S1602A (receptor, See m5) MKSNEHDDCQVTNPSTGHLFDLSSLSGRAGFTAAYAKGWGVYMSICGENENCPPGVGACFGQTRISVGKANKRLRYVDQVLQLVYKDGSPCPSKAGLSYKSVISFVCRPEAGPTNRPMLISLDKQTCTLFFSWHTPLACEQATECSV", "kon [M⁻¹ s⁻¹]": "1.57e+06"}
{"binder": "domain 11^AB5 Q1632L (receptor, See m5; HI loop mutant) MKSNEHDDCQVTNPSTGHLFDLSSLSGRAGFTAAYAKGWGVYMSICGENENCPPGVGACFGQTRISVGKANKRLRYVDQVLQLVYKDGSPCPSKSGLSYKSVISFVCRPEAGPTNRPMLISLDKLTCTLFFSWHTPLACEQATECSV", "kon [M⁻¹ s⁻¹]": "3.18e+06"}
{"binder": "domain 11^AB5 G1603K (receptor, See m5) MKSNEHDDCQVTNPSTGHLFDLSSLSGRAGFTAAYAKGWGVYMSICGENENCPPGVGACFGQTRISVGKANKRLRYVDQVLQLVYKDGSPCPSKSKLSYKSVISFVCRPEAGPTNRPMLISLDKQTCTLFFSWHTPLACEQATECSV", "kon [M⁻¹ s⁻¹]": "4.66e+06"}
{"binder": "domain 11^AB5 Q1632K (receptor, See m5; HI loop mutant) MKSNEHDDCQVTNPSTGHLFDLSSLSGRAGFTAAYAKGWGVYMSICGENENCPPGVGACFGQTRISVGKANKRLRYVDQVLQLVYKDGSPCPSKSGLSYKSVISFVCRPEAGPTNRPMLISLDKKTCTLFFSWHTPLACEQATECSV", "kon [M⁻¹ s⁻¹]": "1.96e+06"}
